System: NCI-H322M
ASSAY_INFO: relative viability (nuclei count vs DMSO), 5 days (fraction); higher = more cells survive
ASSAY_SETUP: first compound 0.6325 µM
REPORTED_METRIC: relative viability

COMPOUND	relative viability
CN1CCN(CCOc2cc(OC3CCOCC3)c3c(Nc4c(Cl)ccc5c4OCO5)ncnc3c2)CC1 [Saracatinib] + Nc1nc2[nH]cc(CCc3ccc(C(=O)N[C@@H](CCC(=O)O)C(=O)O)cc3)c2c(=O)[nH]1 [Pemetrexed] (partner 0.2 µM)	0.505

Task: Specify relative viability for CN1CCN(CCOc2cc(OC3CCOCC3)c3c(Nc4c(Cl)ccc5c4OCO5)ncnc3c2)CC1 [Saracatinib] + Cc1cc(Nc2cc(N3CCN(C)CC3)nc(Sc3ccc(NC(=O)C4CC4)cc3)n2)n[nH]1 [Tozasertib] (partner 0.1 µM) and stop.
Output: 0.439

Task: Specify relative viability for CN1CCN(CCOc2cc(OC3CCOCC3)c3c(Nc4c(Cl)ccc5c4OCO5)ncnc3c2)CC1 [Saracatinib] + COc1cc2c(Oc3ccc(NC(=O)C4(C(=O)Nc5ccc(F)cc5)CC4)cc3F)ccnc2cc1OCCCN1CCOCC1 [Foretinib] (partner 0.25 µM) and stop.
Output: 0.826

Task: Specify relative viability for Cc1csc(=NC2CCCCC2)n1/N=C/c1ccc(O)c(O)c1O [MIM1] + CC(C)C[C@H](NC(=O)[C@H](Cc1ccccc1)NC(=O)c1cnccn1)B(O)O [Bortezomib] (partner 0.002 µM) and stop.
Output: 1.2

Task: Specify relative viability for Cc1csc(=NC2CCCCC2)n1/N=C/c1ccc(O)c(O)c1O [MIM1] + C[C@]1(O)C[C@@H](c2nc(-c3ccc4ccc(-c5ccccc5)nc4c3)c3c(N)nccn32)C1 [Linsitinib] (partner 1 µM) and stop.
Output: 0.981

Task: Specify relative viability for Cc1csc(=NC2CCCCC2)n1/N=C/c1ccc(O)c(O)c1O [MIM1] + Nc1ncn([C@H]2C[C@H](O)[C@@H](CO)O2)c(=O)n1 [Decitabine] (partner 2 µM) and stop.
Output: 0.74

Task: Specify relative viability for Cc1csc(=NC2CCCCC2)n1/N=C/c1ccc(O)c(O)c1O [MIM1] + CC(=O)c1c(C)c2cnc(Nc3ccc(N4CCNCC4)cn3)nc2n(C2CCCC2)c1=O [Palbociclib] (partner 0.5 µM) and stop.
Output: 0.466

Task: Specify relative viability for Cc1csc(=NC2CCCCC2)n1/N=C/c1ccc(O)c(O)c1O [MIM1] + CS(=O)(=O)N1CCN(Cc2cc3nc(-c4cccc5[nH]ncc45)nc(N4CCOCC4)c3s2)CC1 [Pictilisib] (partner 1 µM) and stop.
Output: 0.497

Task: Specify relative viability for CN1CCN(CCOc2cc(OC3CCOCC3)c3c(Nc4c(Cl)ccc5c4OCO5)ncnc3c2)CC1 [Saracatinib] + C[C@]1(O)C[C@@H](c2nc(-c3ccc4ccc(-c5ccccc5)nc4c3)c3c(N)nccn32)C1 [Linsitinib] (partner 1 µM) and stop.
Output: 0.924

Task: Specify relative viability for CN1CCN(CCOc2cc(OC3CCOCC3)c3c(Nc4c(Cl)ccc5c4OCO5)ncnc3c2)CC1 [Saracatinib] + NC(=O)Nc1cc(-c2cccc(F)c2)sc1C(=O)N[C@H]1CCCNC1 [AZD7762] (partner 0.2 µM) and stop.
Output: 0.552

Task: Specify relative viability for Cc1csc(=NC2CCCCC2)n1/N=C/c1ccc(O)c(O)c1O [MIM1] + COc1cccc2cc(-c3nc([C@H]4CC[C@H](C(=O)O)CC4)n4ncnc(N)c34)[nH]c12 [OSI-027] (partner 0.5 µM) and stop.
Output: 0.526

Task: Specify relative viability for Cc1csc(=NC2CCCCC2)n1/N=C/c1ccc(O)c(O)c1O [MIM1] + NC(=O)Nc1cc(-c2cccc(F)c2)sc1C(=O)N[C@H]1CCCNC1 [AZD7762] (partner 0.2 µM) and stop.
Output: 0.652
